The following compounds are listed with their measured pIC50 values.
# Test system: T. b. rhodesiense strain STIB 900, trypomastigotes
# test details: In vitro activity against T. b. rhodesiense, serial drug dilution assay
# condition info: Trypanosoma brucei, read-out: IC50 T. b. rhod.
Units for pIC50: none; it is -log10 of a concentration expressed in mol/L.

Given the compound CC(C)c1nc(CN(C)C(=O)N[C@H](C(=O)N[C@@H](Cc2ccccc2)C[C@H](O)[C@H](Cc2ccccc2)NC(=O)OCc2cncs2)C(C)C)cs1 , what is its reported pIC50? 5.37

Query C[C@H]1[C@H](OC(=O)CCC(=O)O)O[C@@H]2O[C@@]3(C)CC[C@H]4[C@H](C)CC[C@@H]1[C@@]24OO3 [Artesunate] next 4.78

Query CN(C)CCCN1c2ccccc2Sc2ccc(Cl)cc21 next 5.90

Query Cc1cccc(C)c1OCC(=O)N[C@@H](Cc1ccccc1)[C@@H](O)C[C@H](Cc1ccccc1)NC(=O)[C@H](C(C)C)N1CCCNC1=O next 4.97

====

# System: T. b. rhodesiense strain STIB 900, trypomastigotes
# test details: In vitro activity against T. b. rhodesiense, serial drug dilution assay
# condition info: rat, L6 cells versus T. b. rhodesiense STIB 900 trypomastigotes
# Protocol: Drug stock solutions (10mg/ml) were in DMSO (100%). […] Selectivity index (SI) was calculated as IC50 L6 cells/IC50 parasite.
Counter-ions that a name gives are not always drawn.
The following molecules are listed with their measured selectivity ratio values.
Answer with a number only.

Worked cases, selectivity ratio given:
molecule	selectivity ratio
CC(N)C12CC3CC(CC(C3)C1)C2 (stereo not shown) [Rimantadine]	23
CO[C@H]1/C=C/O[C@@]2(C)Oc3c(C)c(O)c4c(O)c(cc(O)c4c3C2=O)NC(=O)/C(C)=C\C=C\[C@H](C)[C@H](O)[C@@H](C)[C@@H](O)[C@@H](C)[C@H](OC(C)=O)[C@@H]1C [Rifamycin SV (Sodium salt), Rifamycin SV]	16

API: value(readout= selectivity ratio, system= T. b. rhodesiense strain STIB 900, trypomastigotes, query= CN(C)CCCN1c2ccccc2Sc2ccc(C(F)(F)F)cc21 [Triflupromazine] ) 13

Query CN(C)CCCN1c2ccccc2Sc2ccccc21 [Promazine] next 14

====

# test details: Cytotoxicity on macrophages infected with L. donovani
# Format: cell-based, mouse
# condition info: mouse, macrophages infected with L. donovani; read-out: IC50 Cytotox. mac.inf.
The following compounds are listed with their measured MCC at 96 h values.
Only the number, expressed in µM, is required.

Worked cases, MCC at 96 h given:
compound	data value
Fc1ccc([C@@H]2CCNC[C@H]2COc2ccc3c(c2)OCO3)cc1	30.4
O=C(Nc1ccc([N+](=O)[O-])cc1Cl)c1cc(Cl)ccc1O [Niclosamide]	1.01

--- query ---
Given the compound CNCCC(Oc1ccc(C(F)(F)F)cc1)c1ccccc1 (stereo not drawn) , what is its reported MCC at 96 h? 32.3

====

# test details: Cytotoxicity on L6 cells
# condition info: rat, L6 cells, IC50 Cytotox. L6, L6 cells; means of two independent assays
The following molecules are listed with their measured pIC50 values.
Units for pIC50: none; it is -log10 of a concentration expressed in mol/L.

Worked cases, pIC50 given:
molecule	pIC50
CN1CCC(=C2c3ccccc3CC(=O)c3sccc32)CC1 [Ketotifen]	3.83
CN(C)CCCN1c2ccccc2Sc2ccc(C(F)(F)F)cc21 [Triflupromazine]	4.73

--- query ---
Given the molecule COC(=O)N[C@H](C(=O)N[C@@H](Cc1ccccc1)[C@@H](O)CN(Cc1ccc(-c2ccccn2)cc1)NC(=O)[C@@H](NC(=O)OC)C(C)(C)C)C(C)(C)C [Atazanavir (Sulfate), Atazanavir] , what is its reported pIC50? 4.33

====

# test details: in vitro
# condition info: rat, IC50 Cytotox. L6
Structures can show the parent of a compound that is named as a salt.
The following molecules are listed with their measured IC50 values.
Only the number, expressed in µM, is required.

Worked cases, IC50 given:
molecule	quantity measured	data value
Cc1cn([C@H]2C[C@H](N=[N+]=[N-])[C@@H](CO)O2)c(=O)[nH]c1=O [Zidovudine]	IC50	207
CC(Cc1cccc(C(F)(F)F)c1)NCCOC(=O)c1ccccc1 (stereo not drawn) [Benfluorex]	IC50	49.1
Cc1c(O)cccc1C(=O)N[C@@H](CSc1ccccc1)[C@H](O)CN1C[C@H]2CCCC[C@H]2C[C@H]1C(=O)NC(C)(C)C [Nelfinavir]	IC50	12.1

Given the molecule O=C1CN(/N=C/c2ccc([N+](=O)[O-])o2)C(=O)N1 [Nitrofurantoine] , what is its reported IC50? 90.3

Query Cc1ncc([N+](=O)[O-])n1CCO [Metronidazole] next 339

Query CNCCC(Oc1ccc(C(F)(F)F)cc1)c1ccccc1 (stereo not drawn) [Fluoxetine] next 15

Query Clc1ccc(COC(Cn2ccnc2)c2ccc(Cl)cc2Cl)cc1 (stereo not drawn) [Econazole (Nitrate salt), Econazole] next 15.6

Query Cc1oncc1C(=O)Nc1ccc(C(F)(F)F)cc1 [Leflunomide] next 124

Query CN1CC(=O)N2[C@H](c3ccc4c(c3)OCO4)c3[nH]c4ccccc4c3C[C@@H]2C1=O [Tadalafil] next 221

Query Nc1nc2c(ncn2CCC(CO)CO)c(=O)[nH]1 [Penciclovir] next 220

Query OC(c1cc(C(F)(F)F)nc2c(C(F)(F)F)cccc12)C1CCCCN1 (stereo not drawn) [Mefloquine (Hydrochloride), Mefloquine] next 3.25

Query OCCN(CCO)c1nc(N2CCCCC2)c2nc(N(CCO)CCO)nc(N3CCCCC3)c2n1 [Dipyridamole] next 38.6

Query COc1ccc2[nH]c([S+]([O-])Cc3ncc(C)c(OC)c3C)nc2c1 (stereo not drawn) [Omeprazole] next 126

Query O=C(O)COCCN1CCN(C(c2ccccc2)c2ccc(Cl)cc2)CC1 (stereo not drawn) [Cetirizine (Hydrochloride), Cetirizine] next 149

Query CC[C@H]1OC(=O)[C@H](C)[C@@H](O[C@H]2C[C@@](C)(OC)[C@@H](O)[C@H](C)O2)[C@H](C)[C@@H](O[C@@H]2O[C@H](C)C[C@H](N(C)C)[C@H]2O)[C@](C)(O)C[C@@H](C)C(=O)[C@H](C)[C@@H](O)[C@]1(C)O [Erythromycine (Hydrate), Erythromycine] next 92.2

Query NNC(=O)c1ccncc1 [Isoniazide] next 602

Query CCc1nc(N)nc(N)c1-c1ccc(Cl)cc1 [Pyrimethamine] next 2.51

Query CC(=O)OCC(CCn1cnc2cnc(N)nc21)COC(C)=O [Famciclovir] next 180

Query CSc1ccc2c(c1)N(CCC1CCCCN1C)c1ccccc1S2 (stereo not drawn) [Thioridazine] next 5.39

Query O=C(N/N=C/c1ccc([N+](=O)[O-])o1)c1ccc(O)cc1 [Nifuroxazide] next 12.3

Query CC(C)(C)NC(=O)[C@@H]1C[C@@H]2CCCC[C@@H]2CN1C[C@@H](O)[C@H](Cc1ccccc1)NC(=O)[C@H](CC(N)=O)NC(=O)c1ccc2ccccc2n1 [Saquinavir] next 18.2

====

# test details: in vitro
# condition info: rat, Cytotox. L6 IC50
# Method: Drug stock solutions (10mg/ml) were in DMSO (100%). […] Selectivity index (SI) was calculated as IC50 L6 cells/IC50 parasite.
The following compounds are listed with their measured pIC50 values.
Units for pIC50: none; it is -log10 of a concentration expressed in mol/L.

Worked cases, pIC50 given:
compound	pIC50
Cc1cccc(N(C)C(=S)Oc2ccc3ccccc3c2)c1 [Tolnaftate]	4.07
CCN(CC)CCOc1ccc(C(=C(Cl)c2ccccc2)c2ccccc2)cc1 [Clomiphene]	4.88
COC1=CC(=O)C[C@@H](C)[C@]12Oc1c(Cl)c(OC)cc(OC)c1C2=O [Griseofulvin]	4.69

--- query ---
Given the compound CN(C)c1ccc(O)c2c1C[C@H]1C[C@H]3[C@H](N(C)C)C(O)=C(C(N)=O)C(=O)[C@@]3(O)C(O)=C1C2=O [Minocycline] , what is its reported pIC50? 5.03

====

# Test system: T. cruzi, strain Tulahuen C4, intracellular amastigotes
# test details: microbe, parasite or virus in culture
# condition info: Trypanosoma cruzi, TULAHUEN, read-out: IC50 T. cruzi
The following compounds are listed with their measured IC50 values.
Only the number, expressed in µM, is required.

compound	data value
CCCSc1ccc2nc(NC(=O)OC)[nH]c2c1	12.3
Cc1cc(C2CCCCC2)n(O)c(=O)c1	2.49
C[C@@H](c1ncncc1F)[C@](O)(Cn1cncn1)c1ccc(F)cc1F	11.2
CC(Cc1cccc(C(F)(F)F)c1)NCCOC(=O)c1ccccc1 (centres unmarked)	73.7
Clc1ccc(C(Cn2ccnc2)OCc2ccsc2Cl)c(Cl)c1 (centres unmarked)	0.064

Given the compound Cc1cn([C@H]2C=C[C@@H](CO)O2)c(=O)[nH]c1=O , what is its reported IC50? 341

Query C[C@@H]1[C@H](O)[C@@H](C)/C=C/C=C/C=C/C=C/C=C/C=C/C=C/[C@H](O[C@@H]2O[C@H](C)[C@@H](O)[C@H](N)[C@@H]2O)C[C@@H]2O[C@](O)(C[C@@H](O)C[C@@H](O)[C@H](O)CC[C@@H](O)C[C@@H](O)CC(=O)O[C@H]1C)C[C@H](O)[C@H]2C(=O)O next 56.7

Query Cc1ncc([N+](=O)[O-])n1CCO next 279

Query CN/C(=N/CCSCc1nc[nH]c1C)NC#N next 351

Query NNC(=O)c1ccncc1 [Isoniazide] next 383

Query CCC(C)n1ncn(-c2ccc(N3CCN(c4ccc(OCC5COC(Cn6cncn6)(c6ccc(Cl)cc6Cl)O5)cc4)CC3)cc2)c1=O (centres unmarked) next 0.004

These measurements were taken from paper PMC4535766.
